The entries below come with measured inhibition at 20 µM values attached.
- target-entity: TDO enzyme (Homo sapiens)
- Construct: 6xHis (N); made in house; host or cells: Escherichia coli BL21 (DE3) (pET 28a vector)
- Sequence (P48775 whole entry): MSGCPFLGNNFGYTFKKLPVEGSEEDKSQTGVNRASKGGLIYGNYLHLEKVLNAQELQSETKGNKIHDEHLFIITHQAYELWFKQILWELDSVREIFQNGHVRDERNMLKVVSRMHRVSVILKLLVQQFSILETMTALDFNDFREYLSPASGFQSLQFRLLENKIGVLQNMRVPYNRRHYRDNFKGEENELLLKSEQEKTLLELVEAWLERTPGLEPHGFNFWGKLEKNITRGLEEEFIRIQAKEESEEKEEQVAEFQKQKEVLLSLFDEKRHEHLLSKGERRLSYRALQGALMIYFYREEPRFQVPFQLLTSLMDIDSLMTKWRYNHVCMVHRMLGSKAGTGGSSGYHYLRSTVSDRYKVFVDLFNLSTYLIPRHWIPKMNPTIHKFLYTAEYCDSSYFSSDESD
- assay-info: HPLC based TDO inhibition assay
- Format: biochemical
- test-context: 20 µM
- Procedure: HPLC based IDO1, and TDO inhibition assays were performed according to the earlier reported procedure[19],[27]–[30]. […] The area under the curve at 365 nm chromatogram corresponding to the kynurenine formation was recorded, and % of inhibition was calculated using standard curve prepared with pure kynurenine (from Sigma) under similar experimental conditions.

{"smiles-structure": "NS(=O)(=O)NCCNC(=O)c1n[nH]nc1-c1ccc(Cl)c(Cl)c1", "inhibition at 20 µM, %": 38}
{"smiles-structure": "NS(=O)(=O)NCCNC(=O)c1n[nH]nc1-c1ccc(F)c(F)c1", "inhibition at 20 µM, %": 63}
{"smiles-structure": "CCOC(=O)c1n[nH]nc1-c1ccccc1", "inhibition at 20 µM, %": 68}
{"smiles-structure": "NC(=O)c1n[nH]nc1-c1ccccc1", "inhibition at 20 µM, %": 25}

* * *

pIC50: −log10 of the molar value.
The following compounds each carry a recorded pIC50 for UniProtKB P14902.

{"compound": "CCOC(=O)c1n[nH]nc1-c1ccc(F)cc1 [Compound 2f]", "pIC50": 5.09}
{"compound": "c1ccc(-c2nn[nH]c2-c2ccccc2)cc1 [Compound 1a, 4,5-diphenyl 2H-1,2,3-triazole]", "pIC50": 4.05}
{"compound": "NC(=O)c1n[nH]nc1-c1ccc(F)cc1 [Compound 3f]", "pIC50": 5.53}
{"compound": "CC(C)(C)OC(=O)NCCNC(=O)c1n[nH]nc1-c1ccc(F)c(F)c1 [Compound 4f]", "pIC50": 5.56}
{"compound": "CCOC(=O)c1n[nH]nc1-c1ccc(Br)cc1 [Compound 2h]", "pIC50": 4.73}
{"compound": "Clc1cccc(-c2n[nH]nc2-c2cccc(Cl)c2)c1 [Compound 1d]", "pIC50": 5.60}
{"compound": "Fc1ccc(-c2n[nH]nc2-c2ccc(F)c(Cl)c2)cc1Cl [Compound 1k]", "pIC50": 5.16}
{"compound": "CCOC(=O)c1n[nH]nc1-c1cccc(Cl)c1 [Compound 2d]", "pIC50": 5.59}
{"compound": "Clc1ccc(-c2n[nH]nc2-c2ccc(Cl)c(Cl)c2)cc1Cl [Compound 1j]", "pIC50": 4.89}
{"compound": "CCOC(=O)c1n[nH]nc1-c1ccc(F)c(Cl)c1 [Compound 2k]", "pIC50": 5.77}

* * *

- target-entity: purified human IDO1 enzyme (Homo sapiens, UniProt P14902)
- Construct: made in house; host or cells: Escherichia coli M15 (pQE30 vector with pREP4 plasmid)
- Sequence (P14902 whole entry): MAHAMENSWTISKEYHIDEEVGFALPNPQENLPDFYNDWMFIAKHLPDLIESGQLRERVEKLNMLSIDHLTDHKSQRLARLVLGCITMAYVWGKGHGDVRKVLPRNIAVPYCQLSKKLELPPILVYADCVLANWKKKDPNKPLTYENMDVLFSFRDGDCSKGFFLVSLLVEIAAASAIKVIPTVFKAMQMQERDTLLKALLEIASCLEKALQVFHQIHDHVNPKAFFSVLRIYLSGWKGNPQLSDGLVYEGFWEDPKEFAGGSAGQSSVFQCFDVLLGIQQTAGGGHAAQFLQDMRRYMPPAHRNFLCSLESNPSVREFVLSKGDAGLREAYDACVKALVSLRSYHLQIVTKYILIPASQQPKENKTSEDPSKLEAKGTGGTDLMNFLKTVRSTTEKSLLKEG
- assay-info: IDO1 inhibition assay by the spectrometric method (pDMAB)
- Format: biochemical
- test-context: purified human IDO1; spectrophotometric; mean of three independent assays; read-out: hIDO1 IC50
- Experimental: Both IDO1 and TDO inhibition assays were performed according to the reported procedures[26]–[30],[50],[51]. […] In the assay system, the minimum and maximum amount of DMSO was 0.02% and 2%, respectively. […] The concentration of the inhibitors was varied from 100 µM to 32 nM by serial dilution technique. […] After that, 2% (w/v) pDMAB was used to quantify the amount of kynurenine formation. The absorbance of the reaction mixture was recorded by UV-Vis spectrophotometer at 480 nm.
measurement-type: IC50

{"smiles-structure": "NC(=O)c1n[nH]nc1-c1cccc(Cl)c1", "measurement-type": "IC50", "test-result": "2690 nM"}
{"smiles-structure": "Cc1ccc(-c2n[nH]nc2-c2ccc(C)cc2)cc1", "measurement-type": "IC50", "test-result": "54900 nM"}
{"smiles-structure": "NC(=O)c1n[nH]nc1-c1ccc(F)c(Br)c1", "measurement-type": "IC50", "test-result": "1990 nM"}
